Assay: NCI Yeast Anticancer Drug Screen. Data for the rad18 strain (AID 177)
Conditions: S. cerevisiae rad18 mutant growth inhibition; at 100.0 µM
About 79,000 compounds went through this panel and 15% of them were active in at least one assay; those are over-represented in the sample as a whole. Activity calls are given as the source filed them. No stated cut-off is given here; in the data, active means growth inhibition above about 70%; inactive means the rest.
Outcome (select one): active, inactive

Check out these entries, answers already filled in.
compound=CN(C)CCNc1ccc2ncnc3c2c1C(=O)c1ccccc1-3 qualitative_label=active
compound=CN(C)c1nc(=Nc2cccc(Cl)c2)ss1 qualitative_label=active
compound=O=[N+]([O-])c1cc(Cl)cnc1Br qualitative_label=active

Tell me the recorded outcome of this test for CC[N+]1(C)CCC(O)(c2ccc(OC)cc2)C(C(=O)c2ccc(OC)cc2)C1 (centres undefined) .
inactive

Same question for CN(C)C=NC1CCC(C(C)(C)C)CC1 (centres undefined) please.
active

Same question for CCCCCOC(=S)SC(=O)OCC please.
active

Same question for N/C(=N/N=C/c1cc(Br)cc(Br)c1O)NO please.
active

Same question for O=C1c2ccccc2C(=O)N1CCCC(=O)n1cc(F)c(=O)[nH]c1=O please.
inactive

Same question for CCCCC(CC)C(=O)[O][Sn]([CH2]CCC)([CH2]CCC)[O]C(=O)C(CC)CCCC (centres undefined) please.
active
